For each entry below, report its Kd value.
Target Entity: Human α-thrombin (human, UniProt P00734 328-363; P00734 364-622)
Experiment Notes: derived from Ki and punfold (KD = Ki x popen), S-2366 kinetics, 37 °C
Please make sure the unit comes right after the number.

Ask | Quick check: Kd of XRXGEWTYDDATKTFTVTEGDFEEIPEEYLQ (N-terminal Bbs (4-tert-butyl-benzenesulfonyl) on Arg; D-pipecolic acid (D-Pip) after Arg, gb1 linker) [BTI2] ?
Reply | 2.8 nM

New cases:
Ask | Quick check: Kd of XRXGEWTYDDATKTFTWTEGDFEEIPEEYLQ (N-terminal Bbs (4-tert-butyl-benzenesulfonyl) on Arg; D-pipecolic acid (D-Pip) after Arg) [BTI4] ?
Reply | 2.8 nM
